Please provide measured polymerase ribozyme fitness (log ratio) for the entries that follow.
B1: TPR t1 (parent)
chain: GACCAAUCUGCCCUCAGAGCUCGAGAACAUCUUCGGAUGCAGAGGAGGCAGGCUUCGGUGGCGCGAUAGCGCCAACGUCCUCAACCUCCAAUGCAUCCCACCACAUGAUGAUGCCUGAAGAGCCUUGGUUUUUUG

# Variants of: B1
# assay_protocol: polymerase ribozyme fitness, log enrichment relative to wild type (log ratio); higher = more active; in vitro selection for triplet polymerase activity
Answers are plain numbers.

Consider the reported polymerase ribozyme fitness (log ratio) for these variants:
mutations="A46G G117C" quantity_measured="polymerase ribozyme fitness (log ratio)" readout_value=-3.96
mutations="A24G C82G" quantity_measured="polymerase ribozyme fitness (log ratio)" readout_value=-1.98
mutations="A74G C114G" quantity_measured="polymerase ribozyme fitness (log ratio)" readout_value=-2.02
mutations="A27U C72U" quantity_measured="polymerase ribozyme fitness (log ratio)" readout_value=-3.48
mutations="C13U A26U G69C" quantity_measured="polymerase ribozyme fitness (log ratio)" readout_value=-4.28

Hi! Can you tell me polymerase ribozyme fitness (log ratio) for each of these variants?
1. C8A C22G G63U U129G
2. G61A C114U
3. C11G A37U G69A A83C A121C
4. A27U C73U A75G

1. -3.84
2. -1.49
3. -1.05
4. -3.03

Recorded polymerase ribozyme fitness (log ratio) of C64G G120U , please. -6.39
